Tested on: LOX IMVI melanoma
test summary: NCI tumour cell line growth inhibition, 48 h
assay metric: TGI

Use these answered entries as a reference point.
compound: CC(C)C(N)=O
TGI: > 5000 µM
//
compound: Cc1ccc2oc(=O)c(C(=O)Nc3nc(C45CC6CC(CC(C6)C4)C5)cs3)cc2c1
TGI: > 100 µM
//
compound: CC(=O)N=C1N(/C=C2\C(=O)Oc3ccccc3C2=O)C(=O)/C(=C/c2ccc(Cl)cc2Cl)N1C
TGI: > 100 µM
//
compound: O=c1[nH]c2cc(Cl)ccc2nc1/C(=N\O)C(O)c1ccc([N+](=O)[O-])cc1 (stereo not given)
TGI: > 100 µM

Now for the compound whose TGI we want.
Entry Cc1ccc(/C(O)=C/c2nc3ccccc3s/c2=N/CS(=O)(=O)c2ccc(C)cc2)cc1 : reported TGI = ? > 10 µM
